- assaySystem: hGLP-1R (Homo sapiens, UniProt P43220)
- Sequence (P43220 24-463): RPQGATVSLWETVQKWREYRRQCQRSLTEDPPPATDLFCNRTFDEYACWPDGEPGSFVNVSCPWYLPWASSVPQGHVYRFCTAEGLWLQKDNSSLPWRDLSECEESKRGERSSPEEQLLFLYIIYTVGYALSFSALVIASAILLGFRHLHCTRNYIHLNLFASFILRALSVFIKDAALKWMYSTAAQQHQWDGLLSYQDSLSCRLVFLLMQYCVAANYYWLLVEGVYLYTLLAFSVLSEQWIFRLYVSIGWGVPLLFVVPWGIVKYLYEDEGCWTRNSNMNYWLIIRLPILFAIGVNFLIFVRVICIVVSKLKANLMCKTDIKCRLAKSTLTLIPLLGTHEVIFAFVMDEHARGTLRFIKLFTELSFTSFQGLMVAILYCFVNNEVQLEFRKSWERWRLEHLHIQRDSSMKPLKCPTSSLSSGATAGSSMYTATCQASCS
- assayProtocol: cell-based or functional assay
quantityName: cAMP Rel EC50, nM (1% HSA) (nM)

binder="YXQGTXTSDYSIXLDKKAQXAFIEYLEEGGPSSGAPPPSEG (synthetic construct; SITE 2: note = 2-Aminoisobutyric Acid; SITE 6: note = alpha-methyl-2-fluoro-L-phenylalanine; SITE 13: note = alpha-methyl-leucine; SITE 17: note = Lysine is chemically modified through conjugation of the epsilon-amino group of the Lysine side chain with (2-[2-(2-Amino-ethoxy)-et)) [Example 431]" reading=35.2
binder="YXQGTXTSDXXIXLDXKAQXEFIEXLVEGGPSSGEPPPSGE (synthetic construct; SITE 2: note = 2-Aminoisobutyric Acid; SITE 6: note = alpha-methyl-2-fluoro-L-phenylalanine; SITE 10: note = 3-(4-Pyridyl)-L-alanine; SITE 11: note = alpha-methyl-L-serine; SITE 13: note = alpha-methyl-leucine; SITE 16: note = L-ornithine; SITE 17: note = Lysine is chemically mo) [Example 750]" reading=39.1
binder="YXQGTFTSDXSRXLDKKAQXAFIEXLIEGGPSSGAPPPSGSEE (Aib, 4Pal, αMeL, Me4Pal; acylated Lys; C-terminal amide; synthetic construct; SITE 2: note = 2-Aminoisobutyric Acid; SITE 10: note = 3-(4-Pyridyl)-L-alanine; SITE 13: note = alpha-methyl-leucine; SITE 17: note = Lysine is chemically modified through conjugation of the epsilon-amino group of the Lysine side chain with (gamma-Glu)2-CO-(CH2)16-CO2H; SITE 20:) [Example 959]" reading=503
binder="YXQGTXTSDYSILLDKKAQXAFIEYLEEGGPSSGAPPPSGE (synthetic construct; SITE 2: note = 2-Aminoisobutyric Acid; SITE 6: note = alpha-methyl-2-fluoro-L-phenylalanine; SITE 17: note = Lysine is chemically modified through conjugation of the epsilon-amino group of the Lysine side chain with (gamma-Glu)2-CO-(CH2)16-CO2H; SITE 20: note = 2-Aminoisobutyric) [Example 435]" reading=33.6
binder="YXQGTFTSDXSQXLDXKAQXQFIEYLIAGGPSSGAPPPSGSEE (non-natural residues; Lys acylated C18 diacid via γGlu2; C-term amide; synthetic construct; SITE 2: note = 2-Aminoisobutyric Acid; SITE 10: note = 3-(4-Pyridyl)-L-alanine; SITE 13: note = alpha-methyl-leucine; SITE 16: note = L-ornithine; SITE 17: note = Lysine is chemically modified through conjugation of the epsilon-amino group of the Lysine side chain with (gamma-Gl)) [Example 1005]" reading=171
binder="YXQGTXTSDXXIXLDXKAQXXFIEXLSEGGPSSGEPPPE (synthetic construct; SITE 2: note = 2-Aminoisobutyric Acid; SITE 6: note = alpha-methyl-2-fluoro-L-phenylalanine; SITE 10: note = 3-(4-Pyridyl)-L-alanine; SITE 11: note = alpha-methyl-L-serine; SITE 13: note = alpha-methyl-leucine; SITE 16: note = L-ornithine; SITE 17: note = Lysine is chemically mo) [Example 438]" reading=41.1
